Provenance of the data: ChEMBL document CHEMBL1201862

- Tested on: MDA-MB-435
- TEST_SUMMARY: NCI tumour cell line growth inhibition, 48 h
Active and inactive are the calls of the source. Rule as the data show it: active = GI50 up to about 1.1 µM and inactive = higher.
Outcomes: true (1) (active), false (0) (inactive)

> print(dat)
                                    compound  classification
 1  Nc1n[nH]c2c1Cc1c(n(Cc3ccc(Cl)cc3)c3ccccc13)C(=O)N2       false (0)
 2  O=C1C(Br)=C(c2ccccc2)C(c2ccccc2)=C1c1ccccc1       false (0)
 3  O=c1cc(/C=C/c2ccc(O)c(O)c2)oc(/C=C/c2ccc(O)c(O)c2)c1       false (0)
 4         CCOC(=O)C(C)(C)/C=C\C(Cl)=C(Cl)Cl       false (0)
 5  CC(=O)OCC1OC(SC2=NC(=O)/C(=C/c3ccccc3)S2)C(OC(C)=O)C(OC(C)=O)C1OC(C)=O (configuration not stated)       false (0)
 6  Cc1cc2sc(C)[n+](CCCOS(=O)(=O)[O-])c2cc1C       false (0)
 7                  NNC(=O)c1cc(=O)[nH][nH]1       false (0)
 8   Cc1ccc(S(=O)(=O)NC(=O)NNc2ccc(F)cc2)cc1       false (0)
 9                          CN(C)CCNc1ccccn1       false (0)
10  COc1ccc(C(=O)c2ccc(-n3c4ccccc4c4ccc5c(c43)C(=O)C=CC5=O)cc2)cc1       false (0)
11  CC(C)(C)c1cc(C(=O)/C=C/c2ccc3c(c2)OCO3)cc(C(C)(C)C)c1O       false (0)
12            N#Cc1c(Cl)cc(Cl)n2c1nc1ccccc12       false (0)
13  O=C1c2ccccc2NC(c2cc(Cl)cc(Cl)c2O)N1CCc1ccccn1 (configuration not stated)       false (0)
14             CNC(=O)CCCNC(=O)CCCC(=O)N(C)C       false (0)
15  COc1cccc2c(=O)c3c(O)c4cc(N(C)C)ccc4c(OC(C)=O)c3oc12       false (0)
16                 COc1ccc2c(C)cc(=O)oc2c1OC       false (0)
17      Cc1cc(=O)oc2c(CN(CCCl)CCCl)c(O)ccc12       false (0)
18  CC1(C)OCC2OC(n3cnc4c(N)nc(Cl)nc43)C(OS(C)(=O)=O)C2O1 (configuration not stated)       false (0)
19  CCN(CC)Cc1c(/C=C\c2cc(OC)c(OC)c(OC)c2)ccc(OC)c1O        true (1)
20  C=CCn1c2ccccc2[n+]2cc([N+](=O)[O-])ccc12       false (0)
21  CC(C)=NN/C(=N\c1ccc(Cl)cc1)NS(=O)(=O)c1ccc(C)cc1       false (0)
22  N#Cc1c(N)c2c(c(-c3ccccc3)c1-c1ccccc1)C(=O)N(NC(=S)Nc1ccccc1)C2=O       false (0)
